# TARGET OR SYSTEM: Mu-type opioid receptor (Homo sapiens, UniProt P35372)
# Sequence (P35372 whole entry): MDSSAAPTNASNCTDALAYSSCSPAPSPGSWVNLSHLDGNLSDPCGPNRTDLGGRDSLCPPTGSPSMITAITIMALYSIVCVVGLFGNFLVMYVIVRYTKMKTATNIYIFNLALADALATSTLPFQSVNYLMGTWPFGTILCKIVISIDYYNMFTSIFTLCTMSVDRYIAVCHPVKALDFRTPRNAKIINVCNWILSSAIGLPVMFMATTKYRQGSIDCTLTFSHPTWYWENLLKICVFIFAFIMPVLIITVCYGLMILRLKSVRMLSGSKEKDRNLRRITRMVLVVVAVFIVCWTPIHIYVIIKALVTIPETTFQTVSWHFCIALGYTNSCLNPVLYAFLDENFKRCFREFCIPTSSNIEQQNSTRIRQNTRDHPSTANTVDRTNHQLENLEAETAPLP
# TEST PROTOCOL: Displacement of [3H]-DAMGO from recombinant human MOR expressed in CHO cell membranes measured after 2 hrs by microbeta scintillation counting method
REPORTED METRIC: pKi
Just so you know, pKi here is -log10 of the concentration in molar units; reply with that number alone.

Field: example entries. Status: answers known.
O=C(CCc1ccccc1)N[C@H]1C[C@]23CCN(CC4CC4)[C@H](Cc4ccc(O)cc42)[C@]32CC[C@@H]1O2: 8.97
CN(C(=O)CCc1ccccc1)[C@@H]1C[C@]23CCN(CC4CC4)[C@H](Cc4ccc(O)cc42)[C@]32CC[C@@H]1O2: 8.84
CN(C(=O)c1ccccc1)[C@@H]1C[C@]23CCN(CC4CC4)[C@H](Cc4ccc(O)cc42)[C@]32CC[C@@H]1O2: 8.85

INPUT: What measured pKi goes with O=C(N[C@H]1C[C@]23CCN(CC4CC4)[C@H](Cc4ccc(O)cc42)[C@]32CC[C@@H]1O2)c1ccccc1 ?
OUTPUT: 9.25

INPUT: What measured pKi goes with CN(C(=O)Cc1ccccc1)[C@@H]1C[C@]23CCN(CC4CC4)[C@H](Cc4ccc(O)cc42)[C@]32CC[C@@H]1O2 ?
OUTPUT: 8.76
